MEASURED TARGET: T1, human IL-21R expressed on cells (human, UniProt Q9HBE5 20-538)
T1 construct: also called human IL-21R-BaF3; human IL-21R-TF1
T1 sequence (Q9HBE5 20-538 limits assumed): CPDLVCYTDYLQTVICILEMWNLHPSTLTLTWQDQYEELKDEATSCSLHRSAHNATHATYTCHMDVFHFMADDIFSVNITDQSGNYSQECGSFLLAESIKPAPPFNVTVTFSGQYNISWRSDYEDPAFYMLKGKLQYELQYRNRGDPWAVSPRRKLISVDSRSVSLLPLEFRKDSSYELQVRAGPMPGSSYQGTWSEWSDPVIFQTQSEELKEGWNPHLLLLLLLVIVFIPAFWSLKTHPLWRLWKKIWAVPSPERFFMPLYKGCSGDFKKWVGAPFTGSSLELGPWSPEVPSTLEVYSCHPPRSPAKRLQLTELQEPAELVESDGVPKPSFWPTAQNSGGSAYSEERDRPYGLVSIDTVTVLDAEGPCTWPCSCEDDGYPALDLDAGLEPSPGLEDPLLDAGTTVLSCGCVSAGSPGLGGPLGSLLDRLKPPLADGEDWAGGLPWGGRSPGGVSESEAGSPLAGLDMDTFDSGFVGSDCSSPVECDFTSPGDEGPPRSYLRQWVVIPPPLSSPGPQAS
TEST NAME: cell ELISA, CHO cells

BINDER	A450 (13 nM Ab) (A450)
AbE (antibody, IgG1, V domains shown, As for AbA: IgG1/lambda, CDR3 graft, residue limits derived; also called VHP/VL14) VH: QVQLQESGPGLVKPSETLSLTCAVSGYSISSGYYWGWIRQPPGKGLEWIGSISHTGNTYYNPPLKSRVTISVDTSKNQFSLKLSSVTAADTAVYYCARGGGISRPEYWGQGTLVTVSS VL: SSELTQDPAVSVALGQTVRITCQGDSLRTYYASWYQQKPGQAPVLVIYGKHKRPSGIPDRFSGSSSGNTASLTITGAQAEDEADYYCMARSRKGNPHVLFGGGTQLTVL	1.26
AbI (antibody, IgG1, V domains shown, As for AbA: IgG1/lambda, CDR3 graft, residue limits derived; also called VHP/VL24) VH: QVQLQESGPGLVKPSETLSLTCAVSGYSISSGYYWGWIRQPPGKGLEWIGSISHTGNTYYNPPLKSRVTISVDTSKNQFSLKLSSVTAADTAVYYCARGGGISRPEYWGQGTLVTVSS VL: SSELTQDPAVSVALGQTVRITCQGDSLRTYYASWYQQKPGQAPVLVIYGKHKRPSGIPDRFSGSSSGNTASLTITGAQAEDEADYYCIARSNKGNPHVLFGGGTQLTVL	1.24
AbU (antibody, human IgG1, V domains shown, CDR3 graft, residue limits derived as for m29; also called VHP/VL25; VHPTM/VL25) VH: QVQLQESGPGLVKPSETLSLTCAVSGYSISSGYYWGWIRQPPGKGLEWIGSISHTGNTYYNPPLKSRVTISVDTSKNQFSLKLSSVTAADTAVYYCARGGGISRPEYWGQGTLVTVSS VL: SSELTQDPAVSVALGQTVRITCQGDSLRTYYASWYQQKPGQAPVLVIYGKHKRPSGIPDRFSGSSSGNTASLTITGAQAEDEADYYCTTRSNKGNPHVLFGGGTQLTVL	1.29
